# protein stability index values compiled below
B1: PCDHGA10 (parent)
chain: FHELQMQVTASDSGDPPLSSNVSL

Variants of: B1
Assay: protein stability index of a GFP-peptide fusion (GPS, HEK-293T) (PSI 1-6); higher = more stable;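 also: lentivirally expressed fusions sorted by FACS into six bins by GFP to DsRed ratio, PSI derived from sequencing read proportions per bin multiplied by bin number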
Conditions: c terminus: a fixed tail appended
Note: the reply should be a number with no unit written.

variant_annotation=S20Q numeric_result=1.98
variant_annotation=S19A numeric_result=2.17
variant_annotation=S19Q numeric_result=2.36
variant_annotation=M6H numeric_result=2.98
variant_annotation=T9L numeric_result=1.99
variant_annotation=D12P numeric_result=1.89
variant_annotation=Q5Y numeric_result=1.87
variant_annotation=H2I numeric_result=1.88

Let me know recorded protein stability index for N21T , thanks.
2.09
